# measurement.target: rat mGlu 5a receptor (Rattus norvegicus (Rat))
# Sequence (P31424 other isoform, or with tags, fused parts or gaps): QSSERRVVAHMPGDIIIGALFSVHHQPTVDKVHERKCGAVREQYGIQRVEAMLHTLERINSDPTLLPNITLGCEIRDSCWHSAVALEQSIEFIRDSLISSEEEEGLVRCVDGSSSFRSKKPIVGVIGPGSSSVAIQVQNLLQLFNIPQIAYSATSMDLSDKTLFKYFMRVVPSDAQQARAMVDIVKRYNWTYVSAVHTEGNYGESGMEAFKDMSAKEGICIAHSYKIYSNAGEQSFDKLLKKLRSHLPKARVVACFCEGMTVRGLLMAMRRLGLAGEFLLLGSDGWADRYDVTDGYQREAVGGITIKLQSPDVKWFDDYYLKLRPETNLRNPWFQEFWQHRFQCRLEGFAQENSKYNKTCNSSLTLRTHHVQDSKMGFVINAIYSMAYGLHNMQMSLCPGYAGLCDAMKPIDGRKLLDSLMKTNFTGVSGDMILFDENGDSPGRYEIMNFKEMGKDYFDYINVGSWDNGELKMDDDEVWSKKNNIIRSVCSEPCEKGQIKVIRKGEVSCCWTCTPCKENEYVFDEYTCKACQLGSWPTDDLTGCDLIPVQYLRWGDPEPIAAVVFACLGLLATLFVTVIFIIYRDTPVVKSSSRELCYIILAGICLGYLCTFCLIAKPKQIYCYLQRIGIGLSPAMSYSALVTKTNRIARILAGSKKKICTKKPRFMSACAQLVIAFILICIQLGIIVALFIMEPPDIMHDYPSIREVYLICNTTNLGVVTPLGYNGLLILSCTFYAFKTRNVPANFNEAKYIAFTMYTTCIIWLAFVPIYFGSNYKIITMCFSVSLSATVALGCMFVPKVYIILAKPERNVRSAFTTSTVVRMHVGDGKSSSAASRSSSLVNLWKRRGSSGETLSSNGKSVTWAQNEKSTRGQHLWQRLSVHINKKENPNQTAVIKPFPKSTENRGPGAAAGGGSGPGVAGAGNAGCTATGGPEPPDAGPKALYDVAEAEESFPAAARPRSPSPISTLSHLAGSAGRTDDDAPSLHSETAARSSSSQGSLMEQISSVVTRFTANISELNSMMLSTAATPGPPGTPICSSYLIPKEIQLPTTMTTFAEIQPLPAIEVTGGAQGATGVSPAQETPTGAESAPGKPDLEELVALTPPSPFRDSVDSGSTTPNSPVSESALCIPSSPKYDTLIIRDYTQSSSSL
# experiment.summary: MPEP binding / [Ca2+]i FLIPR measurement on mGlu 5a transfected EBNA cells, antagonists tested against 10 μM glutamate
# condition.parameters: rat mGlu 5a receptor transiently transfected into EBNA cells; Ki calculated from IC50
observed.property: Ki (nM)

Use the examples below as a reference point.
CN1C(=O)C(C)(C)N=C1c1ncc(C#Cc2cccc(F)c2)cn1
280
CN1C(=O)C(C)(C)N=C1c1ccc(C#Cc2cccc(F)c2)cn1
18

(I) CN1C(=O)C(C)(C)N=C1c1ccc(C#Cc2ccccc2)cn1
(II) CN1C(=O)C(C)(C)N=C1c1ncc(C#Cc2cccc(Cl)c2)cn1
**Query** Response body: label of entry with the larger Ki; valid values I , II . Bench note: the answer is the label of the chosen record.
**Result** II
(II: 80 nM, I: 38 nM)
